Where these numbers come from: paper PMC5833296

# CONDITION_SET: pH 1
Marks after values point to notes of the source that are not given here.
QUANTITY: exp LogD

compound="N#Cc1ccc(-c2ccc(-c3ccc(CNCCCCCCNc4ccnc5ccccc45)cc3)s2)cc1 [Compound 46]" result="3.08 (pH=1)"

Task: Form field: reported exp LogD of CC(=O)O[C@H]1C[C@H]2[C@@H]([C@H](OC(C)=O)C[C@@H]3C[C@H](N)CC[C@@]32C)[C@@H]2CC[C@H]([C@H](C)CCCN(C)CCCC(C)Nc3ccnc4ccccc34)[C@@]12C (stereo partly drawn) [Compound 18]
Output: 2.38 (pH=1)

Task: And what about the compound CC(=O)O[C@H]1C[C@H]2[C@@H]([C@H](OC(C)=O)C[C@@H]3C[C@H](N)CC[C@@]32C)[C@@H]2CC[C@H]([C@H](C)CCCN(C)CCCCNc3ccnc4ccccc34)[C@@]12C [Compound 15] ?
Output: 2.11 (pH=1)

Task: Do the same for N#Cc1ccc(-c2ccc(-c3ccc(CNCCCCNc4ccnc5ccccc45)cc3)s2)cc1 [Compound 101] please
Output: 2.93 (pH=1)

Task: Input CN(CCCCCCCCNc1ccnc2ccccc12)Cc1ccc(-c2ccc(-c3ccc(C#N)cc3)s2)cc1 [Compound 96]
Output: 3.33 (pH=1)

Task: Also C[C@H](CCCNCCCCNc1ccnc2cc(Cl)ccc12)[C@H]1CC[C@H]2[C@@H]3[C@H](O)C[C@@H]4C[C@H](N)CC[C@]4(C)[C@H]3C[C@H](O)[C@]12C [Compound 24] , if possible.
Output: 2.97 (pH=1)

Task: // same read-out, input: CC(=O)O[C@H]1C[C@H]2[C@@H]([C@H](OC(C)=O)C[C@@H]3C[C@H](N)CC[C@@]32C)[C@@H]2CC[C@H]([C@H](C)CCCNC(C)CCCNc3ccnc4ccccc34)[C@@]12C (stereo partly drawn) [Compound 19]
Output: 2.21 (pH=1)

Task: Then what about the compound CC(=O)O[C@H]1C[C@H]2[C@@H]([C@H](OC(C)=O)C[C@@H]3C[C@H](N)CC[C@@]32C)[C@@H]2CC[C@H]([C@H](C)CCCNCCCCNc3ccnc4ccccc34)[C@@]12C [Compound 14] ?
Output: 2.14 (pH=1)

Task: And the next one, N#Cc1ccc(-c2ccc(-c3cccc(CNCCCCCCNc4ccnc5ccccc45)c3)s2)cc1 [Compound 50] ?
Output: 3.08 (pH=1)

Task: Please answer likewise for N#Cc1ccc(-c2ccc(-c3ccc(CNCCCCCCCCNc4ccnc5ccccc45)cc3)s2)cc1 [Compound 93]
Output: 3.42 (pH=1)

Task: Ok, now CC(=O)O[C@H]1C[C@H]2[C@@H]([C@H](OC(C)=O)C[C@@H]3C[C@H](N)CC[C@@]32C)[C@@H]2CC[C@H]([C@H](C)CCCNCCCC(C)Nc3ccnc4ccccc34)[C@@]12C (stereo partly drawn) [Compound 17]
Output: 2.28 (pH=1)

Task: Queued: CC(=O)O[C@H]1C[C@H]2[C@@H]([C@H](OC(C)=O)C[C@@H]3C[C@H](N)CC[C@@]32C)[C@@H]2CC[C@H]([C@H](C)CCCNCCCCNc3ccnc4cc(Cl)ccc34)[C@@]12C [Compound 16]
Output: 2.55 (pH=1); 2.07 (pH=7.3) ^d
